- Protocol: chemical genetic growth profiling, strain panel (AID 1159580);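 further: tested at 20 µM; growth read once vehicle control cultures reached saturation at 30 °C; 1 = growth at the plate median or of vehicle wells; lower values mean less growth of the strain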
- Cond: S. cerevisiae deletion strains, growth OD, locus YPR141C, strain kar3, hits give low values
Screen size: about 5,500 compounds; about 2,000 (36%) were called active. Inconclusive results (about 18%) are left out. The list shows a part of the results.
Recorded Endpoint: normalized growth
In your answer, state the number alone without any accompanying words.

In [3]: df
Out[3]:
                                   compound  number
0  CC1(C)C(=O)C=C[C@@]2(C)C1CC(=O)[C@@]1(C)C3=CC(=O)O[C@@H](c4ccoc4)[C@]3(C)CCC12 (stereo not given in full)       1
1                 Cc1cc(=O)oc2c(O)c(O)ccc12       1
2  C=C1C2CC[C@@]3(C)[C@H](c4ccoc4)OC(=O)C[C@]13O[C@H]1CC(=O)C(C)(C)C(CC(=O)OC)[C@@]21C (stereo not given in full)   0.997
3  CN1CC(CNC(=O)OCc2ccccc2)CC2c3cccc4c3c(cn4C)CC21 (stereo not given)   0.988
4                                   NC(N)=O       1

# input Which normalized growth value is on record for `CO[C@]12C[C@@H](COC(=O)c3cncc(Br)c3)CN(C)[C@@H]1Cc1cn(C)c3cccc2c13` ?
# output 1.01

# input Which normalized growth value is on record for CSc1ccc2c(c1)N(CCC1CCCCN1C)c1ccccc1S2 (stereo not given) ?
# output 1.02

# input Which normalized growth value is on record for `CC1=C2[C@H]3OC(=O)[C@@H](C)[C@@H]3CC[C@@]2(C)C=CC1=O` ?
# output 1.02

# input Which normalized growth value is on record for `CC(=O)Nc1nnc(S(N)(=O)=O)s1` ?
# output 1.01

# input Which normalized growth value is on record for COc1cc(S(C)=O)ccc1-c1nc2ncccc2[nH]1 (stereo not given) ?
# output 0.999

# input Which normalized growth value is on record for `CCOC(=O)[C@H](CCc1ccccc1)N[C@@H](C)C(=O)N1Cc2ccccc2C[C@H]1C(=O)O` ?
# output 1.01

# input Which normalized growth value is on record for CC(CCC(=O)O)[C@H]1CCC2C3C[C@H](O)[C@@H]4C[C@H](O)CC[C@]4(C)C3CC[C@@]21C (stereo not given in full) ?
# output 1.03

# input Which normalized growth value is on record for `O=c1cc(-c2ccccc2)oc2c(O)c(O)ccc12` ?
# output 0.974

# input Which normalized growth value is on record for COC(=O)CCC(C)C1CCC2C3CC[C@@H]4C[C@H](O)CC[C@]4(C)C3C[C@H](O)[C@]12C (stereo not given in full) ?
# output 1.01

# input Which normalized growth value is on record for `COc1ccc(C(=O)N2CCCC2=O)cc1` ?
# output 0.962
